Every entry's value here was drawn from patent US8445503B2.

biological target: GST-PLK2 (Homo sapiens, UniProt Q9NYY3); construct: purchased CarnaBio; assay: PLK TR-FRET peptide assay, PLK2; assay type: biochemical; details: read-out: Plk2 IC50
Sequence (Q9NYY3 whole entry): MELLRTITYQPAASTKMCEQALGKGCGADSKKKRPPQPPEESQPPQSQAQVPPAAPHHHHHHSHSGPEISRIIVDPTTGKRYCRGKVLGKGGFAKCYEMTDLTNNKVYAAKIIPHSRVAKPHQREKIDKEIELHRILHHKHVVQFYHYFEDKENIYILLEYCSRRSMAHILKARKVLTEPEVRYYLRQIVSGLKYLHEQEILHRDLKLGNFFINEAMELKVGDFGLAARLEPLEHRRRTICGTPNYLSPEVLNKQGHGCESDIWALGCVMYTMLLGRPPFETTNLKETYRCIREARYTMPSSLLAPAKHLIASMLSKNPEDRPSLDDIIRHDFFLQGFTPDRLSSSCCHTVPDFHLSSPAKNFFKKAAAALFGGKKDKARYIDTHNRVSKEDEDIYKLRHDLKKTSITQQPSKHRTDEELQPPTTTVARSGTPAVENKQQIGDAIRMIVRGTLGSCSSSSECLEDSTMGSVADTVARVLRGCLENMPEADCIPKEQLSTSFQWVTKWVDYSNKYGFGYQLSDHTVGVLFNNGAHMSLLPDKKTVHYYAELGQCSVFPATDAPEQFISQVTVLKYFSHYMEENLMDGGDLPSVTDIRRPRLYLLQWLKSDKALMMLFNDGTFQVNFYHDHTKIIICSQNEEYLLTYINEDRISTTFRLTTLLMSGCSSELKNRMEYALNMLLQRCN
quantity_kind: IC50

molecule="CC[C@@H]1C(=O)N(C)c2cnc(-c3nccnc3-c3ccccc3)nc2N1C1CCCC1 [Example 138]" quantity_kind=IC50 result="< 1 µM"

* * *

biological target: GST-PLK3 (Homo sapiens, UniProt Q9H4B4); construct: purchased CarnaBio; assay: PLK TR-FRET peptide assay, PLK3; assay type: biochemical; settings: read-out: Plk3 IC50; PLK TR-FRET peptide assay, GST-PLK3
Sequence (Q9H4B4 whole entry): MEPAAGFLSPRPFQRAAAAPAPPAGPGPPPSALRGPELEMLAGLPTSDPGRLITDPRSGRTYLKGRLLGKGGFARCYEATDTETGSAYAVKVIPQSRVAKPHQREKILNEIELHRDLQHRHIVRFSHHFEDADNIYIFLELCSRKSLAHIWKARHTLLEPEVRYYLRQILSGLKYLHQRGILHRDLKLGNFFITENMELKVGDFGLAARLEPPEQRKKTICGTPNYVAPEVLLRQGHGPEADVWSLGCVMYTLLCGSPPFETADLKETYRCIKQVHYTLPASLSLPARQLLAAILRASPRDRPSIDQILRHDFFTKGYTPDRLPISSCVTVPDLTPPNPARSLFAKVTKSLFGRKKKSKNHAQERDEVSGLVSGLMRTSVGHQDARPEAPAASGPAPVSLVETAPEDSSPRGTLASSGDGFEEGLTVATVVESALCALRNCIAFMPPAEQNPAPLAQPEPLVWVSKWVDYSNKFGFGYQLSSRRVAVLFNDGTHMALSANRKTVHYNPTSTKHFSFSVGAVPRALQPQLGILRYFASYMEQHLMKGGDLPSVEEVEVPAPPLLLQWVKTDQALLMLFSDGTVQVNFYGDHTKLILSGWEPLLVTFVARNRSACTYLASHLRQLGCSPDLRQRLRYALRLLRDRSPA
pIC50: −log10 of the molar value.
quantity_kind: pIC50

chemical_smiles=CC[C@@H]1C(=O)N(C)c2cnc(-c3nccnc3-c3ccccc3)nc2N1C1CCCC1 system_name="GST-PLK3 (Homo sapiens, UniProt Q9H4B4)" result="> 6.00"
